Molecular target: NavMs voltage-gated sodium channel (Magnetococcus marinus)
Construct: wild-type NavMs α-subunit in CHO-K1 cells, co-transfected with β1-subunit and eGFP
Sequence (A0L5S6 1-274): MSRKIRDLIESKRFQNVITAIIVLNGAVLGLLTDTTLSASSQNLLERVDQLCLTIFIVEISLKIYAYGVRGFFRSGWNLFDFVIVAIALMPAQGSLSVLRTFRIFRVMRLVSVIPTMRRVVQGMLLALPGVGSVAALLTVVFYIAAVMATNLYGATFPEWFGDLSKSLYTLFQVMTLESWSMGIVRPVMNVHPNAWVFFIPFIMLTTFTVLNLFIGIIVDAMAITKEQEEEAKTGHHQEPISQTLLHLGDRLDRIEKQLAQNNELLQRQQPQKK
Experiment: whole-cell voltage-clamp of transfected CHO-K1 cells
recorded-endpoint: pIC50
Give bare numbers, as −log10 of the molar value.

Inquiry: Answer with reported pIC50 of C=C(C)[C@@H]1CCC(C)=C[C@H]1c1c(O)cc(CCCCC)cc1O
Reply text: 4.75
